Species on record: Rattus norvegicus
Assay: Negative allosteric modulation of GABAB receptor in Sprague-Dawley rat brain cortex membrane assessed as decrease in [35S]GTPgammaS binding at 25 uM incubated for 30 mins relative to control
Format: cell membranes
Parameters: scale not given: the % may be the effect or the level left
Conditions: Cerebral cortex, filed as negative allosteric modulator
reportedMetric: Activity (%)
Dear colleague, please return just the value in %, with no unit written.

Task item: Which Activity is reported for this compound? CCOC(=O)c1cnc(-n2nc(C)cc2C)nc1NC1CCCC1
Reply: 44.7

Task item: And CSc1ncc(-c2nnc(C)o2)c(NC2CCCC2)n1 ?
Reply: 37.7

Task item: One more compound: Cc1c(O)c2cc(C(C)(C)C)ccc2n(CC(C)C)c1=O
Reply: 32.5

Task item: Ok, now CCOC(=O)c1cnc(SC)nc1NC1CCCC1
Reply: 29.3

Task item: Would you mind doing CC(C)c1c(O)c2cc(C(C)(C)C)ccc2n(CC(C)(C)C)c1=O as well?
Reply: 22.7

Task item: Another: CSc1ncc(-c2nc(C)no2)c(NC2CCCC2)n1
Reply: 33.3

Task item: Let us now turn to Cc1c(O)nc(-c2ccccc2)n(Cc2ccccc2)c1=O
Reply: 8.3

Task item: Please do the same for Cn1c(Sc2ccc(Cl)cc2)nc(-c2ccc(C(C)(C)C)cc2)cc1=O as well.
Reply: 9.7

Task item: Record: CC(C)Cn1c(=O)c(C(C)C)c(O)c2cc(C(C)(C)C)ccc21
Reply: 50.7

Task item: // next record Cn1c(Sc2ccccc2)nc(-c2ccccc2)cc1=O
Reply: 9.7

Task item: Cool, now CCCn1c(=O)c(C)c(O)c2cc(OC)ccc21
Reply: 10.5

Task item: Please answer likewise for O=c1cc(O)nc(-c2ccccc2)n1Cc1ccccc1
Reply: 14

Task item: How about this compound: O=c1cc(-c2ccccc2)nc(Sc2ccccc2)[nH]1
Reply: 7.3

Task item: Subsequent entry: CC(C)Cn1c(=O)c(C(C)C)c(O)c2cc(C(C)C)ccc21
Reply: 41.5

Task item: Now consider O=c1cc(-c2ccccc2)nc(Sc2ccc(Cl)cc2)[nH]1 .
Reply: 14.7

Task item: Now the compound CCCCCn1c(=O)c(C(C)C)c(O)c2cc(C(C)C)ccc21
Reply: 37.7

Task item: Now this one: Cn1c(Sc2ccc(Cl)cc2)nc(-c2ccccc2)cc1=O
Reply: 34.7

Task item: # repeat for CC(C)c1ccc2c(c1)c(O)c(C(C)C)c(=O)n2CC(C)(C)C
Reply: 13.8

Task item: // query: CC(C)c1c(O)nc(-c2ccccc2)n(Cc2ccccc2)c1=O
Reply: 13
